Below: a set of entries, each annotated with reported IC50.
ASSAY SYSTEM: Genome polyprotein (dengue virus type 2)
Sequence (P29990 1346-1475 limits assumed): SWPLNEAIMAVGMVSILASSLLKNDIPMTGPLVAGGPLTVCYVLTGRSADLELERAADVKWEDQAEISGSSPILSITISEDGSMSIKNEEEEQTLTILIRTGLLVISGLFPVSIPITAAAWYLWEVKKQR
Sequence (P29990 1476-2093 limits assumed): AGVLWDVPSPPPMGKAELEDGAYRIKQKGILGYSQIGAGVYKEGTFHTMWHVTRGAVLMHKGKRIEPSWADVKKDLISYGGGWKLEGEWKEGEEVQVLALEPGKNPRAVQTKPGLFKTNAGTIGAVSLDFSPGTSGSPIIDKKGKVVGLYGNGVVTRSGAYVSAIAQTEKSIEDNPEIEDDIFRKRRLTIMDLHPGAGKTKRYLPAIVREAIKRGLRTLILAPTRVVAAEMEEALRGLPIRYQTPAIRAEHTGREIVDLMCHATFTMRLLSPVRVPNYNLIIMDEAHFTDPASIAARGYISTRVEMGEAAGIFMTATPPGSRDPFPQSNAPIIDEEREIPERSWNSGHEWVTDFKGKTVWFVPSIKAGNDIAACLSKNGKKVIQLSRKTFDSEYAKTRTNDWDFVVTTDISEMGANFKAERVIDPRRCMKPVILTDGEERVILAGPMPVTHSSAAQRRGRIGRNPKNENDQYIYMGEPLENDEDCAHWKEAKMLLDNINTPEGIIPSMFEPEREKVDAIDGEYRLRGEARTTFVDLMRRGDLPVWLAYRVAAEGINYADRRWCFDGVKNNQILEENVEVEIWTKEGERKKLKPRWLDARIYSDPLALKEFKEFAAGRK
Assay type: functional, Thailand/16681/1984

Sample records with IC50:
# SMILES STRUCTURE, READOUT KIND, ASSAY VALUE
measured = [
    ("CC(C)(C)NC(=O)[C@H](Nc1cccc(-c2nn[nH]n2)c1)c1cc(Cl)cc(NC(=O)OCc2ccccc2)c1", "IC50", "11.3 µM"),
    ("Cn1nc(C(=O)Nc2ccc3c(c2)CNC3)c2cc(Br)ccc21", "IC50", "89.7 µM"),
    ("Fc1cc(F)c2[nH]cc(CN3CCC(c4cscn4)CC3)c2c1F", "IC50", "> 99.5 µM"),
    ("CC(C)n1nncc1-c1cc(F)cc(C(=O)Nc2ccc3c(c2)CNC3)c1", "IC50", "89 µM"),
    ("COCCCC(=O)N1CCC([C@H](NC(=O)OCc2ccccc2)C(=O)Nc2cccc(CN)c2)CC1", "IC50", "> 99.5 µM"),
    ("NCc1cccc(NC(=O)[C@@H](NC(=O)OCc2ccccc2)C2CCN(C(=O)c3cscn3)CC2)c1", "IC50", "> 99.5 µM"),
    ("CNC(=O)[C@H](Nc1ccc2c(c1)CNC2)c1cc(Cl)cc2c1OCC2", "IC50", "> 99.5 µM"),
    ("O=C(Nc1ccc2c(c1)CNC2)c1cc(Cl)cc2[nH]c(COc3ccccn3)nc12", "IC50", "> 99.5 µM"),
]

Problem: Please report the recorded IC50 for CS(=O)(=O)Nc1c(Cl)cc(Cl)cc1C(=O)Nc1cccc(CN)c1 .
Result: > 99.5 µM

Problem: Reported IC50 for N#C[C@]1(Nc2ccc3c(c2)CNC3)C(=O)Nc2ccccc21 : what is it?
Result: > 99.5 µM

Problem: // lookup IC50 for COc1c(C(N)=O)cc(Cl)cc1S(=O)(=O)Nc1cccc(-c2nnn[nH]2)c1
Result: > 99.5 µM
